These measurements were taken from patent US20050197336A1.

test system: Histone deacetylase (HDAC), HeLa cell nuclear extract; assay: In vitro fluorescent histone deacetylase assay (Biomol kit, HeLa cell nuclear extract); type: biochemical; details: compound at 100 μM; HeLa cell nuclear extract as HDAC source; substrate 50 μM; 10 min at room temperature
MEASURED ATTRIBUTE: % inhibition HDAC @ 100 μM (%)
Return type: number; implicit unit %.

Qu. Which value of % inhibition HDAC @ 100 μM has been reported for CC(C)c1ccc(S(=O)(=O)N2CCN(c3ncc(C(=O)NO)s3)CC2)cc1 [Example 16] in the records?
Ans. 100

Qu. Which % inhibition HDAC @ 100 μM value belongs to Cc1ccc(F)cc1S(=O)(=O)N1CCN(c2ncc(C(=O)NO)s2)CC1 [Example 33] ?
Ans. 96

Qu. Name the recorded % inhibition HDAC @ 100 μM for Cc1cccc(Cl)c1S(=O)(=O)N1CCN(c2ncc(C(=O)NO)s2)CC1 [Example 38] .
Ans. 100

Qu. Which measured % inhibition HDAC @ 100 μM value corresponds to Cc1ccccc1S(=O)(=O)N1CCN(c2ncc(C(=O)NO)s2)CC1 [Example 21] ?
Ans. 100

Qu. GET /values?readout=% inhibition HDAC @ 100 μM&item= O=C(NO)c1cnc(N2CCN(S(=O)(=O)c3ccc(CN4CCOCC4)cc3)CC2)s1 [Example 106]
Ans. 99

Qu. Which % inhibition HDAC @ 100 μM reading was recorded for the compound O=C(NO)c1cnc(N2CCN(S(=O)(=O)Cc3ccccc3)CC2)s1 [Example 26] ?
Ans. 98

Qu. Which % inhibition HDAC @ 100 μM is listed for O=C(NO)c1cnc(N2CCN(S(=O)(=O)c3ccc(-c4cccc(F)c4)cc3)CC2)s1 [Example 61] ?
Ans. 95

Qu. Any idea what % inhibition HDAC @ 100 μM was measured for CSc1nccc(-c2ccc(S(=O)(=O)N3CCN(c4ncc(C(=O)NO)s4)CC3)s2)n1 [Example 45] ?
Ans. 95
